The reported numbers originate from patent US5162328A.

Below, each of the molecules is paired with its reported half-life value.
- Measurement Protocol: Pharmacokinetics in dogs (plasma concentration by HPLC)
- Assay type: in vivo, dog (beagle)
- Particulars: dog, plasma, po, 2 mg/kg/day, Dog 3, day 3; 2 mg/kg/day PO
Assay Readout: half-life (h)

> print(dat)
                                   molecule  assay.readout  unit.abbreviation  value.measured
1  c1cc(Nc2nccc(-c3cccs3)n2)cc(OCCn2ccnc2)c1      half-life                  h            1.62
2  Cc1cc(Nc2nccc(-c3ccncc3)n2)ccc1N.Cl.Cl [Compound 2, reference compound]      half-life                  h            1.02
